Test system: E. faecalis ATCC 29212
Assay Remarks: MIC, NCCLS broth microdilution assay
Type: cell-based, Enterococcus faecalis
Test Settings: C = E. faecalis ATCC 29212
Observable: Minimum Inhibitory Concentration (MIC)

Consider the following illustrative entries.
{"columns": ["Input Smiles", "Minimum Inhibitory Concentration (MIC)"],
 "data": [
  ["Cn1cc(NC(=O)c2cc(NC(=O)c3cc(NC(=O)c4cc(NC(=O)c5ccc(F)cc5)cn4C)cn3C)cn2C)cc1C(=O)NCCN1CCSCC1", "+++ (+++ = MIC ≦ 4)"],
  ["Cn1cc(NC(=O)c2cc(NC(=O)c3ccc(Cl)cc3F)c[nH]2)cc1C(=O)Nc1cc(C(=O)NCCN2CCCCC2)n(CCCO)c1", "+++ (+++ = MIC ≦ 4)"],
  ["Cn1cc(NC(=O)c2cc(NC(=O)c3cc(NC(=O)c4ccc(F)cc4)cn3C)cn2C)cc1C(=O)NCCN1CCSCC1", "+++ (+++ = MIC ≦ 4)"],
  ["Cn1cc(NC(=O)c2cc(NC(=O)c3cc(NC(=O)c4ccc(F)cc4F)c[nH]3)cn2C)cc1C(=O)NCCN1CCC(O)CC1", "+++ (+++ = MIC ≦ 4)"],
  ["Cn1cc(NC(=O)c2cc(NC(=O)c3cc(NC(=O)c4ccc(F)cc4F)cn3C)cn2C)cc1C(=O)NCCN(CCO)CCO", "+ (+ = 12 ≦ MIC ≦ 32)"],
  ["Cn1cc(NC(=O)c2cc(NC(=O)c3ccc(F)cc3F)no2)cc1C(=O)NCCN1CCOCC1", "+ (+ = 12 ≦ MIC ≦ 32)"]
]}

Turning now to a further record.
Recorded Minimum Inhibitory Concentration (MIC) for Cn1cc(NC(=O)c2cc(NC(=O)c3ccc(Cl)cc3F)c[nH]2)cc1C(=O)NCCN1CCC(F)(F)CC1 , please?
+++ (+++ = MIC ≦ 4)
